Just for reference, ChEMBL document CHEMBL1201862 is where these values come from.

IC50 for assorted molecules
SUBJECT_OF_TEST: Polyadenylate-binding protein 1 (Homo sapiens, UniProt P11940)
Sequence (P11940 whole entry): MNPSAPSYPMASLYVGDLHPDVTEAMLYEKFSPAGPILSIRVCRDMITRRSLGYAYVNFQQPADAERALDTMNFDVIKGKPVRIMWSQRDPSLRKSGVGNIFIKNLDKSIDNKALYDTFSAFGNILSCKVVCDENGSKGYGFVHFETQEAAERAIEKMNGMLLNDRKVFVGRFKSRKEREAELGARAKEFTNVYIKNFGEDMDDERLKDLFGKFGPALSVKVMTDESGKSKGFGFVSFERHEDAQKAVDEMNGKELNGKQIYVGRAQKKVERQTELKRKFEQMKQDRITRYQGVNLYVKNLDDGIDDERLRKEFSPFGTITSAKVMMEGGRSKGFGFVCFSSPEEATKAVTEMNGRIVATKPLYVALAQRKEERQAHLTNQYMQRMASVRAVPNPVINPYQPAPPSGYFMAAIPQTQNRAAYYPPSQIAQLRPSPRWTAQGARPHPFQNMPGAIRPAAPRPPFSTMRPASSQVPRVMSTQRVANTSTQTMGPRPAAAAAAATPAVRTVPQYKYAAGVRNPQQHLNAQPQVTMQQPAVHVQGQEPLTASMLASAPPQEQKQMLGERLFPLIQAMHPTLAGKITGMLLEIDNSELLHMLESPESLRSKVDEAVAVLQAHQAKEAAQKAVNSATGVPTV
PROCEDURE_SUMMARY: MLLE binding blockers, Cy5 peptide tracer – biochemical, fluorescence polarization, Cy5-PAM2 peptide, secondary, miRNA deadenylation inhibitor project, dose response (AID 602260)
Type: functional
CONDITION: read-out: IC50_Mean
The source made the active and inactive calls.
PROPERTY_NAME: IC50

MOLECULE: N=C(N)NC(=S)Nc1ccc(Cl)cc1
EXPERIMENTAL_VALUE: > 66 µM (inactive)

MOLECULE: O=C(O)c1ccccc1Nc1cc(Cl)c2nonc2c1[N+](=O)[O-]
EXPERIMENTAL_VALUE: > 66 µM (inactive)

MOLECULE: CC(=O)Nc1cc(-c2ccccc2N(C)C)cn2c(-c3ccc(F)c(Cl)c3)cnc12
EXPERIMENTAL_VALUE: > 66 µM (inactive)

MOLECULE: CC1=C(C(=O)O)N2C(=O)C(NC(=O)c3ccn(C)n3)C2SC1 (stereo not given)
EXPERIMENTAL_VALUE: > 66 µM (inactive)

MOLECULE: CC1CN(C(=S)c2cccc([N+](=O)[O-])c2)CC(C)O1 (stereo not given)
EXPERIMENTAL_VALUE: > 66 µM (inactive)

----------
IC50 for assorted compounds
SUBJECT_OF_TEST: Disintegrin and metalloproteinase domain-containing protein 17 (Homo sapiens, UniProt P78536)
Sequence (P78536 whole entry, the tested form may be a part): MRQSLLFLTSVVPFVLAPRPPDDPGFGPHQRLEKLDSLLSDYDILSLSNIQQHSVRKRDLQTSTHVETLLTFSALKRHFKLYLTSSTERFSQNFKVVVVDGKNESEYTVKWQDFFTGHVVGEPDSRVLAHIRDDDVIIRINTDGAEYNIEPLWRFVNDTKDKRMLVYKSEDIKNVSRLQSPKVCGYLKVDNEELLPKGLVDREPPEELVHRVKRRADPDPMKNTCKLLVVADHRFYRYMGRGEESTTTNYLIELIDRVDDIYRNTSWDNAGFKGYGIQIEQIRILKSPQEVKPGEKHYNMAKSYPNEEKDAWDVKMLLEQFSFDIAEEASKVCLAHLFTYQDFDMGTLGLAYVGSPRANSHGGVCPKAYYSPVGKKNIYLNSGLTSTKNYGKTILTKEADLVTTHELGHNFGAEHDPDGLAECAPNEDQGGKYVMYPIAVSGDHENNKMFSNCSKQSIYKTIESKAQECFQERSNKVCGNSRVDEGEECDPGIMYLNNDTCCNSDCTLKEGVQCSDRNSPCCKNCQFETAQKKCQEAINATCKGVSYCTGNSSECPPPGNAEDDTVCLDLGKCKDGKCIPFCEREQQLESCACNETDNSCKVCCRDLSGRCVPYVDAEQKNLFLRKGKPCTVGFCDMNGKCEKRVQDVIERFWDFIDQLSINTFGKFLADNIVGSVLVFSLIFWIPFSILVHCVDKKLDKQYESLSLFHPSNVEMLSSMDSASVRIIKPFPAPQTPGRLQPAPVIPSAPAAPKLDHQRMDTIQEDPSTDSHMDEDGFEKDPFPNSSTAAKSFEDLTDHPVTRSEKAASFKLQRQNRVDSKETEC
PROCEDURE_SUMMARY: inhibition of ADAM17 substrate cleavage – biochemical, quenched FRET substrate, counter-screen for ADAM10 exosite inhibitor project, dose response (AID 743253)
The source made the active and inactive calls.
PROPERTY_NAME: IC50

COMPOUND: O=S(=O)(NCC(Nc1ccc(Cl)cc1)c1ccccc1)c1ccc(Cl)cc1 (centres undefined)
PROPERTY_NAME: IC50
EXPERIMENTAL_VALUE: > 69.5 µM (inactive)

COMPOUND: COc1ccc(CCN2C(=O)c3[nH]nc(-c4ccccc4O)c3C2c2cccc(Cl)c2)cc1 (centres undefined)
PROPERTY_NAME: IC50
EXPERIMENTAL_VALUE: > 69.5 µM (inactive)

COMPOUND: NS(=O)(=O)c1ccc(NCc2cc(Cl)ccc2OCc2ccccc2F)cc1
PROPERTY_NAME: IC50
EXPERIMENTAL_VALUE: > 69.5 µM (inactive)

COMPOUND: Cc1ccc(S(=O)(=O)Nc2ccc(-c3nnc(SCc4ccccc4Cl)o3)cc2)cc1
PROPERTY_NAME: IC50
EXPERIMENTAL_VALUE: > 69.5 µM (inactive)

----------
SUBJECT_OF_TEST: RNA-binding protein pos-1 (Caenorhabditis elegans, UniProt G5EF15)
Sequence (G5EF15 whole entry): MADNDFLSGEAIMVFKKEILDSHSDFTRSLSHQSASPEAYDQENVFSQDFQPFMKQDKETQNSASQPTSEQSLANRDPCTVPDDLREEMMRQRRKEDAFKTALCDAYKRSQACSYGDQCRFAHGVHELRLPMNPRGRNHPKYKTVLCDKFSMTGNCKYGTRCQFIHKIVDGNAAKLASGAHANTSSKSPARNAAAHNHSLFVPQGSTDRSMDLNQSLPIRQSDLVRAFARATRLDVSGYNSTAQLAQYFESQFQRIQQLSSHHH
PROCEDURE_SUMMARY: disruptors of C. elegans POS-1 RNA interaction – biochemical, fluorescence polarization, dose response (AID 1964);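 also: purified POS-1 fused to maltose binding protein made in E. coli; potency of compounds blocking POS-1 binding to fluorescent RNA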
The source made the active and inactive calls.
EC50 for assorted molecules

MOLECULE: Cc1cc(O)c(CN(C)C)c2c1C(=O)/C(=C/c1ccco1)O2
SUBJECT_OF_TEST: RNA-binding protein pos-1 (Caenorhabditis elegans, UniProt G5EF15)
EC50: 32.1 µM (active)
//
MOLECULE: O=C1C=C(Nc2cccc3cccnc23)c2ccccc2C1=O
SUBJECT_OF_TEST: RNA-binding protein pos-1 (Caenorhabditis elegans, UniProt G5EF15)
EC50: 47.6 µM (active)
//
MOLECULE: COc1cc2c(cc1OC)-c1c(OC)c(OC)c(OC)c3ccnc(c13)C2=O
SUBJECT_OF_TEST: RNA-binding protein pos-1 (Caenorhabditis elegans, UniProt G5EF15)
EC50: 28.6 µM (inconclusive)
//
MOLECULE: O=[N+]([O-])c1ccc2nc(O)c(/C=C(\O)c3ccccc3)nc2c1
SUBJECT_OF_TEST: RNA-binding protein pos-1 (Caenorhabditis elegans, UniProt G5EF15)
EC50: 20.1 µM (active)
//
MOLECULE: O=C1Nc2cc(Cl)cnc2N2CCCC12 (stereo unspecified)
SUBJECT_OF_TEST: RNA-binding protein pos-1 (Caenorhabditis elegans, UniProt G5EF15)
EC50: 16.8 µM (active)
//
MOLECULE: Nc1c(O)ccc2c1C(=O)c1ccccc1C2=O
SUBJECT_OF_TEST: RNA-binding protein pos-1 (Caenorhabditis elegans, UniProt G5EF15)
EC50: > 300 µM (not active)
//
MOLECULE: CCN(CC)c1ccc(N=Nc2nc[nH]n2)cc1
SUBJECT_OF_TEST: RNA-binding protein pos-1 (Caenorhabditis elegans, UniProt G5EF15)
EC50: 73.4 µM (active)
//
MOLECULE: CC(C)CC1=NN2C(=N)/C(=C/c3c[nH]c4ccccc34)C(=O)N=C2S1
SUBJECT_OF_TEST: RNA-binding protein pos-1 (Caenorhabditis elegans, UniProt G5EF15)
EC50: 34.2 µM (inconclusive)
//
MOLECULE: CCN(CC)S(=O)(=O)c1ccc(N/C=C2\C(=O)N(C)C(=O)C(C#N)=C2C)cc1
SUBJECT_OF_TEST: RNA-binding protein pos-1 (Caenorhabditis elegans, UniProt G5EF15)
EC50: 32.7 µM (active)
//
MOLECULE: N#C/C(=C\c1cc(O)c(O)c(O)c1)C(N)=O
SUBJECT_OF_TEST: RNA-binding protein pos-1 (Caenorhabditis elegans, UniProt G5EF15)
EC50: 134 µM (active)
//
MOLECULE: O=C1c2cccc3c(O)ccc(c23)C(=O)N1Cc1ccccc1
SUBJECT_OF_TEST: RNA-binding protein pos-1 (Caenorhabditis elegans, UniProt G5EF15)
EC50: 2.62 µM (active)

----------
System: Streptococcus
PROCEDURE_SUMMARY: GAS UMAA2166 growth inhibition – luminescence, BacTiterGlo, counter-screen for streptokinase expression inhibitor project, dose response (AID 1915);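 also: potency for reduction of bacterial viability or growth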
Format: functional, organism-based
Activity calls are given as the source filed them.
EC50 for assorted molecules
PROPERTY_NAME: EC50

MOLECULE: Oc1ccc(Br)cc1/C=N/Nc1nc(N2CCCCC2)nc(N2CCOCC2)n1
EXPERIMENTAL_VALUE: 24.7 µM (active)
--
MOLECULE: CCc1nnc(NC(=O)c2ccc(S(=O)(=O)N3CCCc4ccccc43)cc2)o1
EXPERIMENTAL_VALUE: 13.3 µM (active)
--
MOLECULE: COc1ccc(CCN2C(=O)c3[nH]nc(-c4ccccc4O)c3C2c2cccc(Cl)c2)cc1 (stereo unspecified)
EXPERIMENTAL_VALUE: 17.6 µM (active)
--
MOLECULE: O=C(NC(=S)Nc1cccc(-c2ccc(CO)o2)c1)c1cccs1
EXPERIMENTAL_VALUE: 68.4 µM (active)
--
MOLECULE: Cc1nn2c(N3CCN(C(=O)c4ccco4)CC3)cc(C(C)(C)C)nc2c1-c1ccccc1
EXPERIMENTAL_VALUE: 22.1 µM (active)
--
MOLECULE: O=C(NC(=S)N1CCN(c2c(Cl)cccc2[N+](=O)[O-])CC1)c1cccs1
EXPERIMENTAL_VALUE: 10.2 µM (active)

----------
SUBJECT_OF_TEST: DNA repair protein RAD52 homolog (Homo sapiens, UniProt P43351)
Sequence (P43351 whole entry): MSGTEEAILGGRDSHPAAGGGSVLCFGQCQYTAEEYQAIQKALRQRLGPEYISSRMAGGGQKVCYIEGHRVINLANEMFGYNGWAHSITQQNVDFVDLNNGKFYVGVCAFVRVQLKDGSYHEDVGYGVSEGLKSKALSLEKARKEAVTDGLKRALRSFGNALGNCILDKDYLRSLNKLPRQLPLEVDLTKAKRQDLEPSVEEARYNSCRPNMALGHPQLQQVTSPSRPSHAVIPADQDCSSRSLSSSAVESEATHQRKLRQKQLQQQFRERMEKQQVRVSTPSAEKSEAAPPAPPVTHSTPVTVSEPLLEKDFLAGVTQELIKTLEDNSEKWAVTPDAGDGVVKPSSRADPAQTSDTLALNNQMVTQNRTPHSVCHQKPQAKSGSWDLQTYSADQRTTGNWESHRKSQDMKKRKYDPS
Type: functional, biochemical
The source made the active and inactive calls.

MOLECULE: CCOc1ccc2c(C)nc(NC3=NC(C)=CC(C)(C)N3)nc2c1
AC50: 4.06 µM (active)

MOLECULE: CN(C)CCN(C(=O)CN1C(=O)c2ccccc2C1=O)c1nc2cc3c(cc2s1)OCO3
AC50: 23.9 µM (active)

MOLECULE: CCCN1CCN(C(S)=Nc2ccc3nc(N4CCN(CC)CC4)cc(C)c3c2)CC1
AC50: 15.3 µM (active)

MOLECULE: CCCCN(CC)CCN=C(S)Nc1ccc2nc(N3CCN(C)CC3)cc(C)c2c1
AC50: 5.01 µM (active)

MOLECULE: CCN(CC)CC(O)c1ccc2ccc3ccc(O)cc3c2c1 (stereo not drawn)
AC50: 7.92 µM (active)

MOLECULE: CC[n+]1c(C=C2C=C(C)OC(C)=C2)sc2ccccc21
AC50: 8.17 µM (active)

MOLECULE: CCSc1ccc(-c2cc(NC=O)c3ncc(-c4cccc(C(=O)NCCN(C)C)c4)n3c2)cc1
AC50: 1.14 µM (active)

MOLECULE: CN(C)CC/C=C1\c2ccccc2Sc2cc(F)c(Cl)cc21
AC50: 15.1 µM (active)
